tested_on: T1, human programmed cell death protein 1 (hPD-1) C93S (aa 24-167) (Homo sapiens, UniProt Q15116, C93S)
T1 construct: made as a fusion with a TEV site and human Fc; the Fc was cut off with TEV protease; source: Expi293F, purified (Protein A, TEV cleavage of Fc, SEC; monomer fractions); not shown: Fc (human), C-terminal, cleaved
protocol: SPR; Carterra LSA; Fab from the ammonium sulfate precipitate of the culture supernatant immobilised on a NiHC200M chip; hPD-1 (1-1024 nM) or mPD-1-Fc (4-1024 nM) as analyte, fourfold dilution series, no regeneration; HBS-EP pH 7.4, 25 °C; medians over the spots of a construct, KD = koff/kon
particulars: one partner purified
Attribute: log10 kon
Plainly stated, the numbers are log10 of kon given in M⁻¹ s⁻¹.

>>> readout_number("toripalimab Fab L.P100T (Fab, V domains shown, as the heavy chain of Sm3; light chain of Sm3 with this change; numbers count from the chain's first residue; source: Brevibacillus, culture supernatant (ammonium sulfate precipitate); not shown: 6xHis, C-terminal, kept; 6xHN, C-terminal, kept) VH: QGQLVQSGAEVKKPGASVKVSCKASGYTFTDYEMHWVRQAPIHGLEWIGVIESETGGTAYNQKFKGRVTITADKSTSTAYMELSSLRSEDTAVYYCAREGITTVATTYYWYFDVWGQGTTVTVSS VL: DVVMTQSPLSLPVTLGQPASISCRSSQSIVHSNGNTYLEWYLQKPGQSPQLLIYKVSNRFSGVPDRFSGSGSGTDFTLKISRVEAEDVGVYYCFQGSHVTLTFGQGTKLEIK")
3.98

query: Any idea what its log10 kon is? The binder is toripalimab Fab H.T103Y (Fab, V domains shown, heavy chain of Sm3 with this change; numbers count from the chain's first residue; as the light chain of Sm3; source: Brevibacillus, culture supernatant (ammonium sulfate precipitate); not shown: 6xHis, C-terminal, kept; 6xHN, C-terminal, kept) VH: QGQLVQSGAEVKKPGASVKVSCKASGYTFTDYEMHWVRQAPIHGLEWIGVIESETGGTAYNQKFKGRVTITADKSTSTAYMELSSLRSEDTAVYYCAREGITYVATTYYWYFDVWGQGTTVTVSS VL: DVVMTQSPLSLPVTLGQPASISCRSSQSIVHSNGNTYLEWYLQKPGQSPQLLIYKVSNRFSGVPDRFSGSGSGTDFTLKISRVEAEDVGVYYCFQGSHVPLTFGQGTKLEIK
result: 3.54

query: Any idea what its log10 kon is? The binder is toripalimab Fab H.I51A (Fab, V domains shown, heavy chain of Sm3 with this change; numbers count from the chain's first residue; as the light chain of Sm3; source: Brevibacillus, culture supernatant (ammonium sulfate precipitate); not shown: 6xHis, C-terminal, kept; 6xHN, C-terminal, kept) VH: QGQLVQSGAEVKKPGASVKVSCKASGYTFTDYEMHWVRQAPIHGLEWIGVAESETGGTAYNQKFKGRVTITADKSTSTAYMELSSLRSEDTAVYYCAREGITTVATTYYWYFDVWGQGTTVTVSS VL: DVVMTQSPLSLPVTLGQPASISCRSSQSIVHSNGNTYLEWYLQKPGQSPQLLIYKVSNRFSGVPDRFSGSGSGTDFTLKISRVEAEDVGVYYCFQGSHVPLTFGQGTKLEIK
result: 4.18

query: Any idea what its log10 kon is? The binder is toripalimab Fab H.G66A (Fab, V domains shown, heavy chain of Sm3 with this change; numbers count from the chain's first residue; as the light chain of Sm3; source: Brevibacillus, culture supernatant (ammonium sulfate precipitate); not shown: 6xHis, C-terminal, kept; 6xHN, C-terminal, kept) VH: QGQLVQSGAEVKKPGASVKVSCKASGYTFTDYEMHWVRQAPIHGLEWIGVIESETGGTAYNQKFKARVTITADKSTSTAYMELSSLRSEDTAVYYCAREGITTVATTYYWYFDVWGQGTTVTVSS VL: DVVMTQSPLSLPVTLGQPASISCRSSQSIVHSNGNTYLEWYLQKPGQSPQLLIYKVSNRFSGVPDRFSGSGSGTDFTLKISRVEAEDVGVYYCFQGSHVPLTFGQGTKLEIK
result: 3.81

query: Any idea what its log10 kon is? The binder is toripalimab Fab H.I101A (Fab, V domains shown, heavy chain of Sm3 with this change; numbers count from the chain's first residue; as the light chain of Sm3; source: Brevibacillus, culture supernatant (ammonium sulfate precipitate); not shown: 6xHis, C-terminal, kept; 6xHN, C-terminal, kept) VH: QGQLVQSGAEVKKPGASVKVSCKASGYTFTDYEMHWVRQAPIHGLEWIGVIESETGGTAYNQKFKGRVTITADKSTSTAYMELSSLRSEDTAVYYCAREGATTVATTYYWYFDVWGQGTTVTVSS VL: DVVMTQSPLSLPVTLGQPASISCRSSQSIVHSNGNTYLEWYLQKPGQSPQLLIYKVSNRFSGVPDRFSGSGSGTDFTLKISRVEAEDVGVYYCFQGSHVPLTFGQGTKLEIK
result: 3.74

query: Any idea what its log10 kon is? The binder is toripalimab Fab L.L101G (Fab, V domains shown, as the heavy chain of Sm3; light chain of Sm3 with this change; numbers count from the chain's first residue; source: Brevibacillus, culture supernatant (ammonium sulfate precipitate); not shown: 6xHis, C-terminal, kept; 6xHN, C-terminal, kept) VH: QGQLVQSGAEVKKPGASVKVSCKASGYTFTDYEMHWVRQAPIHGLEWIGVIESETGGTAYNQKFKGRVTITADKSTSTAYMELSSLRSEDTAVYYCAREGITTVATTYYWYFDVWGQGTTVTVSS VL: DVVMTQSPLSLPVTLGQPASISCRSSQSIVHSNGNTYLEWYLQKPGQSPQLLIYKVSNRFSGVPDRFSGSGSGTDFTLKISRVEAEDVGVYYCFQGSHVPGTFGQGTKLEIK
result: 3.71

query: Any idea what its log10 kon is? The binder is toripalimab Fab H.A59Y (Fab, V domains shown, heavy chain of Sm3 with this change; numbers count from the chain's first residue; as the light chain of Sm3; source: Brevibacillus, culture supernatant (ammonium sulfate precipitate); not shown: 6xHis, C-terminal, kept; 6xHN, C-terminal, kept) VH: QGQLVQSGAEVKKPGASVKVSCKASGYTFTDYEMHWVRQAPIHGLEWIGVIESETGGTYYNQKFKGRVTITADKSTSTAYMELSSLRSEDTAVYYCAREGITTVATTYYWYFDVWGQGTTVTVSS VL: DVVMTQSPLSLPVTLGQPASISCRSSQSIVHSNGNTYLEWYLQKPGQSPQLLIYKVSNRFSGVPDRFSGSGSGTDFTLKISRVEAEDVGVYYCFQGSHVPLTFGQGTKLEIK
result: 4.34
